tested on: CCRIS mutagenicity, Ames/micronucleus/aberration tests; assay: CCRIS mutagenicity studies; details: Test System: AMES SALMONELLA TYPHIMURIUM; Strain/Indicator: TA98; Metabolic Activation: S-9
Active and inactive are the calls of the source. No rule for the calls is given here.
A correct response names exactly one class from active, inactive

Use these answered entries as a reference point.
O=C1CCCc2c1ccc1c([N+](=O)[O-])c3ccccc3cc21
inactive
CCOP(=S)(OCC)SCCl
inactive
O=C1CCCc2cc([N+](=O)[O-])c3ccccc3c21
active
Cc1cnc2cc(CO)c3c(nc(N)n3C)c2n1
active
CO[C@@]1(NC(=O)CSC[C@@H](N)C(=O)O)C(=O)N2C(C(=O)O)=C(CSc3nnnn3C)CS[C@@H]21
inactive
Oc1ccccc1O
inactive

Returns: the outcome recorded for CCOC(=O)Nc1cccc2c1CN(C)CC2c1ccc(Cl)cc1 (stereo not drawn) in this assay.
inactive

// outcome(item) with item = "Nc1cc(-c2ccncc2)c[nH]c1=O"
inactive
